Recorded values, source PubChem BioAssay AID1963421.

# reported pIC50; entries follow
- Tested on: 519858-162-T-J1-PDC complex spheroid growth, % test/control
- Procedure Summary: Anticancer human tumor 519858-162-T-J1-PDC patient-derived colon adenocarcinoma cell line growth inhibition [Asc]
- Condition: curve of first compound; second compound 0.0316 µM
- Text: Multicellular complex tumor spheroid response to apoptosis pathway targeting inhibitors Alrizomadlin, Pelcitoclax, and Dasminapant in combination with a variety of drugs and investigational agents in selected tumor cell lines […] Compounds. […] If the clinical Cmax for an agent had not been determined, the highest concentration tested was 10 microM. […]
pIC50: −log10 of the molar value.

Some compounds with recorded pIC50:
Compound	Measurement
C=CC(=O)N1CCN(c2nc(=O)n(-c3c(C)ccnc3C(C)C)c3nc(-c4c(O)cccc4F)c(F)cc23)C(C)C1 (centres undefined) + CNC(C)C(=O)NC1CN(S(=O)(=O)c2cccc(S(=O)(=O)N3CCC4CCC(C(=O)NC(c5ccccc5)c5ccccc5)N4C(=O)C(NC(=O)C(C)NC)C3)c2)CCC2CCC(C(=O)NC(c3ccccc3)c3ccccc3)N2C1=O	< 5.00
Cc1nc(N2CCC3(CC2)COC(C)C3N)c(CO)nc1Sc1ccnc(N)c1Cl (centres undefined) + CNC(C)C(=O)NC1CN(S(=O)(=O)c2cccc(S(=O)(=O)N3CCC4CCC(C(=O)NC(c5ccccc5)c5ccccc5)N4C(=O)C(NC(=O)C(C)NC)C3)c2)CCC2CCC(C(=O)NC(c3ccccc3)c3ccccc3)N2C1=O	< 5.52
C=CC(=O)N1CCN(c2nc(=O)n(-c3c(C)ccnc3C(C)C)c3nc(-c4c(O)cccc4F)c(F)cc23)C(C)C1 (centres undefined) + Cc1c(S(C)(=O)=O)c(-c2cc(F)cc(N3CCN(c4ccc(NS(=O)(=O)c5ccc(NC(CCN6CCC(C(=O)OCCCP(=O)(O)O)CC6)CSc6ccccc6)c(S(=O)(=O)C(F)(F)F)c5)cc4)CC3)c2)c(-c2ccc(Cl)cc2)n1C(C)C	< 5.00

Alright, here's another compound for you.
So what does the record say about pIC50 for NC1CCC(NC2CC2c2ccccc2)CC1 (centres undefined) + CNC(C)C(=O)NC1CN(S(=O)(=O)c2cccc(S(=O)(=O)N3CCC4CCC(C(=O)NC(c5ccccc5)c5ccccc5)N4C(=O)C(NC(=O)C(C)NC)C3)c2)CCC2CCC(C(=O)NC(c3ccccc3)c3ccccc3)N2C1=O ?
< 7.00

====

- Tested on: 519858-162-T-J1-PDC complex spheroid growth, % test/control
- Procedure Summary: Anticancer human tumor 519858-162-T-J1-PDC cell line growth inhibition [Asc];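 also: seven day drug exposure begun three days after spheroid seeding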;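 as to viability, T/C: 100% = DMSO vehicle wells and lower values mean less viable spheroid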
- Condition: second compound 1 µM; first compound 1 µM; stronger effect = lower value
# reported viability, T/C; entries follow
Write the value in % as a bare number.

Some compounds with recorded viability, T/C:
Compound	Measurement
C#Cc1c(F)ccc2cc(O)cc(-c3ncc4c(N5CC6CCC(C5)N6)nc(OCC56CCCN5CC(F)C6)nc4c3F)c12 (configuration not stated) + Cc1c(S(C)(=O)=O)c(-c2cc(F)cc(N3CCN(c4ccc(NS(=O)(=O)c5ccc(NC(CCN6CCC(C(=O)OCCCP(=O)(O)O)CC6)CSc6ccccc6)c(S(=O)(=O)C(F)(F)F)c5)cc4)CC3)c2)c(-c2ccc(Cl)cc2)n1C(C)C	58.2
C=C(F)C(=O)N1CCN(c2nc(OCC3CCCN3C)nc3c2CCN(c2cccc4cccc(Cl)c24)C3)CC1CC#N (configuration not stated) + Cc1c(S(C)(=O)=O)c(-c2cc(F)cc(N3CCN(c4ccc(NS(=O)(=O)c5ccc(NC(CCN6CCC(C(=O)OCCCP(=O)(O)O)CC6)CSc6ccccc6)c(S(=O)(=O)C(F)(F)F)c5)cc4)CC3)c2)c(-c2ccc(Cl)cc2)n1C(C)C	86.5
COc1c(OCCCN2CCOCC2)ccc2c3n(c(=NC(=O)c4cnc(N)nc4)nc12)CCN3 + Cc1c(S(C)(=O)=O)c(-c2cc(F)cc(N3CCN(c4ccc(NS(=O)(=O)c5ccc(NC(CCN6CCC(C(=O)OCCCP(=O)(O)O)CC6)CSc6ccccc6)c(S(=O)(=O)C(F)(F)F)c5)cc4)CC3)c2)c(-c2ccc(Cl)cc2)n1C(C)C	42.2
C=CC(=O)N1CCN(c2nc(=O)n(-c3c(C)ccnc3C(C)C)c3nc(-c4c(O)cccc4F)c(F)cc23)C(C)C1 (configuration not stated) + CNC(C)C(=O)NC1CN(S(=O)(=O)c2cccc(S(=O)(=O)N3CCC4CCC(C(=O)NC(c5ccccc5)c5ccccc5)N4C(=O)C(NC(=O)C(C)NC)C3)c2)CCC2CCC(C(=O)NC(c3ccccc3)c3ccccc3)N2C1=O	82
O=C(c1ccc(F)c(F)c1Nc1ccc(I)cc1F)N1CC(O)([C@@H]2CCCCN2)C1 + Cc1c(S(C)(=O)=O)c(-c2cc(F)cc(N3CCN(c4ccc(NS(=O)(=O)c5ccc(NC(CCN6CCC(C(=O)OCCCP(=O)(O)O)CC6)CSc6ccccc6)c(S(=O)(=O)C(F)(F)F)c5)cc4)CC3)c2)c(-c2ccc(Cl)cc2)n1C(C)C	19.5

So what does the record say about viability, T/C for C=CC(=O)N1CCN(c2nc(=O)n(-c3c(C)ccnc3C(C)C)c3nc(-c4c(O)cccc4F)c(F)cc23)C(C)C1 (configuration not stated) + Cc1c(S(C)(=O)=O)c(-c2cc(F)cc(N3CCN(c4ccc(NS(=O)(=O)c5ccc(NC(CCN6CCC(C(=O)OCCCP(=O)(O)O)CC6)CSc6ccccc6)c(S(=O)(=O)C(F)(F)F)c5)cc4)CC3)c2)c(-c2ccc(Cl)cc2)n1C(C)C ?
69.5

Likewise for O=C(c1ccc(F)c(F)c1Nc1ccc(I)cc1F)N1CC(O)([C@@H]2CCCCN2)C1 + CNC(C)C(=O)NC1CN(S(=O)(=O)c2cccc(S(=O)(=O)N3CCC4CCC(C(=O)NC(c5ccccc5)c5ccccc5)N4C(=O)C(NC(=O)C(C)NC)C3)c2)CCC2CCC(C(=O)NC(c3ccccc3)c3ccccc3)N2C1=O ?
18.6
